These measurements were taken from patent US20250027068.

- target.under.test: pooled human IgG (human IgG1,2,3 and 4)
value.kind: Enzyme Activity Endpoint Assay (purified): Fc (ng/µL)
Return type: number; implicit unit ng/µL.

The protein listed as PRT-340 (protein) MTITSVWTKGVTPPTPEDFRENNEDVLHAPYLANQGWYDITKAFDGKDNLLCGAATAGNMLHWWFDQNKEEIERYLKKHPEKQKIIFNNQELFDVKAAIDTKDSQTNSKLFDYFRDKAFPNLSARQLGVMPDLVLDMFINGYYLNLGKTQSTDVNRPYQDKDKRGGIFDAVFTRGDQTTLLTARHDLKNKGLNEISDLIKQELTEGKALALSHTYANVSINHVINLWGADFDAEGNLEAIYVTDSDANASIGMKKYFVGRNAHGKVAISAKKIEGDNIGAQVLGLFTLSTGQDQWQKLS has a reported Enzyme Activity Endpoint Assay (purified): Fc of 374

The protein listed as PRT-498 (protein) MVTSVWTKGVTPPTDFRKIVDGNIAYYHAPYKAGQGWYDITKAFDGGDDLLCGAATAGNMLHWWFDQNKEYIEAYLKKHPEKQKIMFGDQELLDVRKAINTKGSQKNSELFNYFRDKAFPNLSARRLGVMPDLVLDMFINGYYLNVTKTQTTDVNRTYQEKDKRGGIFDAVFTRGDQSKLLTSRHDLKNKGLKEISDLIKQELTEGKALGLSHTYANVRINHVINLWGADFDSDGNLKAIYVTDSDSNASIGMKKYFVGVNSAGKVAISAKEIKEDNIGAQVLGLFTLSTGQDIWNQTNLEHHHHHH has a reported Enzyme Activity Endpoint Assay (purified): Fc of 318

The protein listed as PRT-365 (protein) MSQTEDSESLQRLRDIEDFQAEKKKQNVVYTKWLDGVDVKDHDFRKIVDGNEAYYATPLLNGRGFYDINKDFNRDSDKCAAAVAANMFHYWLDRNRDNVDRFLRQNPEKHGIIELPDGQLKLSDFLNTYESDDGYRDKSKLFDFISENFNGPVWTDKLLDNYINGYAYNYKYGRLIEDPTKNTSKINFFKEVFNEKILTNNHSIRNQNELSVLLSEALYTGKAIGLSYGPAGTRHSLGHIISVWGADLDADGNVVAIYVTDSDDKKLTIGDERVGLKRYKISTDDEGRLRLTAYEETHNTGGQIRGLWTLDTGKQAWADYFDKTEQTGTDQAEQ has a reported Enzyme Activity Endpoint Assay (purified): Fc of 385

The protein listed as PRT-349 (protein) MSQTEDSESLQRLRDIEDFQAEKKDQNVVYTKWLDGVDVKDHDFRKIVDGNIAYYATPLLNGRGLYDINKDFNRDSDKCAAAVAANMFHYWLDINRDNVDRFLRQNPEKHGIIELPDGQLKLSDFLNTYESDHGYRDKSKLFDFISENFNGPVWTDKLLDNYINGYAYNYKYGRTIEDPTKNTSKINFFKEVFNEKILTNNHSIRNQNELSVLLSEALYTGKAIGLSYGPAGLRHSLGHIISVWGADLDADGNVVAIYVTDSDDKKLTIGDERVGLKRYKISTDDENRLRLTAYEETHNTGGQVRGLWTLDTGKYAWADYFDKTEQTGTDQAEQ has a reported Enzyme Activity Endpoint Assay (purified): Fc of 215

The protein listed as PRT-355 (protein) MSQTEDSESLQRLRDIEDFQAEKKMQNVVYTKWLDGVDVKDHDFRKIVDGNEAYYATPLLNGRGFYDINKDFNRDSDKCAAAVAANMFHYWLDINRDNVDRFLRQNPEKHGIIELPDGQLKLSDFLNTYESDHGYRDKSKLFDFISENFNGPVWTDKLLDNYINGYAYNYKYGRLIEDPTKNTSKINFFKEVFNEKILTNNHSIRNQNELSVLLSEALYTGKAIGLSYGPAGTRHSLGHIISVWGADLDADGNVVAIYVTDSDDKKLTIGDERVGLKRYKISTDDENRLRLTAYEETHNTGGQIRGLWTLDTGKYAWADYFDKTEQTGTDQAEQ has a reported Enzyme Activity Endpoint Assay (purified): Fc of 500

The protein listed as PRT-472 (protein) MVTSVWTKGVTPPTDFIYGEDVLHAPYKAGQGWYDITKTFNGKDDLLCGAATAGNMLHWWFDQNKEQIENYLKKHPEKQKINFNGEQMFDVKEAIDTKDSQLDSKLFEYFKEKAFPYLSTKHLGVFPDHVIDMFINGYRLSLTNHGPTPVKRGSKDPRGGIFDAVFTRGDQSKLLTNRHDLKNKTLKEISDLIKQELTEGKALGISHTYANVRINHVINLWGADFDAEGNLEAIYVTDSDSNASIGMKKYFVGVNSNGKVAISAKEIEEDNIGAQVLGLFTLSTGQDIWNQTNLEHHHHHH has a reported Enzyme Activity Endpoint Assay (purified): Fc of 386

The protein listed as PRT-351 (protein) MSQTEDSESLQRLRDIEDFQAEKKMQNVVYTKWLDGVDVKDHDFRKIVDGNSAYYATPLLNGRGFYDINKDFNRDSDKCAAAVAANMFHYWLDINRDNVDRFLRQNPEKHGIIELPDGQLKLSDFLNTYESDHGYRDKSKLFDFISENFNGPVWTDKLLDNYINGYAYNYKYGRTIEDPTKNTSKINFFKEVFNEKILTNNHSIRNQNEFSVLLIEALYTGKAIGLSYGPAGLRHSLGHIISVWGADLDADGNVVAIYVTDSDDKKLTIGDERVGLKRYKISTDDENRLRLTAYEETHNTGGQIRGLWTLDTGKYAWADYFDKTEQTGTDQAEQ has a reported Enzyme Activity Endpoint Assay (purified): Fc of 191

The protein listed as PRT-311 (protein) MQITSVWTKGVTPLTPEQFRENNEDVIHAPYLAHQGWYDITKAFDGKDNLLCGAATAGNMLHWWFDQNKTEIEAYLSKHPEKQKIIFNNQEWFDLKAAIDTKDSQTNSQLFNYFRDKAFPNLSARQLGVMPDLVLDMFINGYYLNVPKTQSTDVNRPYQDKDKRGGIFDAVFTRGDQTTLLTARHDLKNKGLNDISTIIKQELTEGRALALSHTYANVSISHVINLWGADFNAEGNLEAIYVTDSDANASIGMKKYAVGINAHGHVAISAKKIEGENIGAQVLGLFTLSSGKDIWQKLS has a reported Enzyme Activity Endpoint Assay (purified): Fc of 295

The protein listed as PRT-368 (protein) MSQTEDSESLQRLRDIEDFQAEKKDQNVVYTKWLDGVDVKDHDFRKIVDGNIAYYATPLLNGRGWYDINKDFNRDNDKCAAAVAANMFHYWLDRNRDNVDRFLRQNPEKHGIIELPDGQLKLSDFLNTYESDDGYRDKSKLFDFISENFNGPVWTDKLLDNYINGYAYNYKYGRTIEDSTKNTSKINFFKEVFNEKILTNNHSIRNQNEFSVLLIEALYTGKAIGLSYGPAGLRHSLGHIISVWGADLDADGNVVAIYVTDSDDKKLTIGDERVGLKRYKISTDDEGRLRLTAYEETHNTGGQVRGLWTLDTGKQAWADYFDKTEQTGTDQAEQ has a reported Enzyme Activity Endpoint Assay (purified): Fc of 3
